Literature compilation of IC50 measurements on Human Factor XIIa (Homo sapiens, UniProt P00748).
Answer in µM, number only, no unit symbol.

Human Factor XIIa (Homo sapiens, UniProt P00748) data for CC(C)N[C@H](CCCCN1CCCCC1)C(=O)N1CCN(C2=NC(C)[C@H](c3cccc(C#N)c3)O2)C[C@H]1C(=O)NCc1cccs1 (stereo partly shown) ; its IC50: 0.0125

IC50 on Human Factor XIIa (Homo sapiens, UniProt P00748) for Cc1cc(F)cc2c1NCC[C@@H]2C(=O)n1nc2c(c1N)COCC2 (single isomer, unassigned) is 0.04

Observed IC50 on Human Factor XIIa (Homo sapiens, UniProt P00748), entry Cc1cccc2c1NCC[C@H]2C(=O)n1nc2c(c1N)C[C@H](O)CC2 (single isomer, unassigned) , equals 35

Log: Human Factor XIIa (Homo sapiens, UniProt P00748), compound Nc1c2c(nn1C(=O)[C@@H]1CCNc3c(Cl)cccc31)CC[C@H](N)C2 (relative stereo) , IC50 = 3

Lab entry: Human Factor XIIa (Homo sapiens, UniProt P00748) assay, compound CN(C)CCCC[C@H](C(=O)N1CCN(C2=NC(C)(C)C(c3ccccc3)O2)C[C@H]1C(=O)NCc1ccc(CN)c(Cl)c1)N(C)C (stereo partly shown) , IC50 = 0.0349

Note to self: IC50 of Nc1c2c(nn1C(=O)C1CCNc3ccccc31)CN(C(=O)c1ccccc1)CC2 (stereo not shown) with Human Factor XIIa (Homo sapiens, UniProt P00748) was 0.8

Log: Human Factor XIIa (Homo sapiens, UniProt P00748), compound Nc1c2c(nn1C(=O)[C@@H]1CCNc3ccc(Cl)cc31)CC[C@H](O)C2 (single isomer, unassigned) , IC50 = 9

Reading of IC50 for CS(=O)(=O)N1CCc2c(nn(C(=O)C3CCNc4ccccc43)c2N)C1 (stereo not shown) with Human Factor XIIa (Homo sapiens, UniProt P00748): 0.35

Entry CN(C)CCCC[C@@H](NC1CCCCC1)C(=O)N1CCN(C2=NC(C)(C)CO2)C[C@H]1C(=O)NCc1cccs1 , tested on Human Factor XIIa (Homo sapiens, UniProt P00748), has a reported IC50 of 0.0297

Record for Cc1cc2c(C(=O)n3nc4c(c3N)CCCC4)cccc2n1C under target or system Human Factor XIIa (Homo sapiens, UniProt P00748): IC50 reported as 0.04

Entry C[C@@H]1N=C(N2CCN(C(=O)[C@H](N)CCCCN3CCCCC3)[C@H](C(=O)NCc3cccc(Cl)c3)C2)O[C@H]1c1ccccc1 ; assay system Human Factor XIIa (Homo sapiens, UniProt P00748); IC50 recorded at 0.022

So the reported IC50 for CC(C)n1ccc2c(C(=O)n3nc4c(c3N)CCCC4)cccc21 , on Human Factor XIIa (Homo sapiens, UniProt P00748), turned out to be 0.15

Form: item Cc1cccc2c1NCC[C@H]2C(=O)n1nc2c(c1N)CCNC2 (single isomer, unassigned) ; test system Human Factor XIIa (Homo sapiens, UniProt P00748); IC50: 30

----------
Here is a set of compounds with reported IC50 for Human Factor XIIa (Homo sapiens, UniProt P00748), compiled from the literature.
# value in µM; strip the unit string

Entry N=C(N)c1nc2ccc(OC(=O)c3ccsc3)cc2s1 under Human Factor XIIa (Homo sapiens, UniProt P00748) had IC50 of 0.01

Tested on Human Factor XIIa (Homo sapiens, UniProt P00748), the item CCN1CCc2c(nn(C(=O)[C@@H]3CCNc4c(C)cc(F)cc43)c2N)C1 (single isomer, unassigned) showed IC50 equal to 4.5

Measured IC50 (Human Factor XIIa (Homo sapiens, UniProt P00748)), entry Nc1nn(C(=O)C2CCNc3ccccc32)c2c1CCN(C(=O)c1ccccc1)C2 (stereo not shown) : 60

// IC50 (Human Factor XIIa (Homo sapiens, UniProt P00748)) for Nc1nn(C(=O)c2cccc3[nH]ncc23)c2c1CCCC2 = 30

Record for Cc1cccc2c1NCC[C@@H]2C(=O)n1nc2c(c1N)CCNC2 (single isomer, unassigned) under target or system Human Factor XIIa (Homo sapiens, UniProt P00748): IC50 reported as 0.1

// returns IC50 for CC(C)N[C@H](CCCCN1CCCCC1)C(=O)N1CCN(C2=N[C@@H](C)[C@H](c3ccccc3)O2)C[C@H]1C(=O)NCc1ccc2[nH]cc(Cl)c2c1 with Human Factor XIIa (Homo sapiens, UniProt P00748); value = 0.0005

Value (IC50, Human Factor XIIa (Homo sapiens, UniProt P00748)) for record N=C(N)c1cc2ccc(OC(=O)c3ccoc3)cc2s1 = 0.0174

Record for C[C@@H]1N=C(N2CCN(C(=O)[C@@H](CCCCN3CCCCC3)NC3CCC(CN)CC3)[C@H](C(=O)NCc3cccc(Cl)c3)C2)O[C@H]1c1ccccc1 (stereo partly shown) under target or system Human Factor XIIa (Homo sapiens, UniProt P00748): IC50 reported as 0.029

Summary: Cc1cc2c(o1)CCCC2C(=O)n1nc2c(c1N)CCCC2 (stereo not shown) , Human Factor XIIa (Homo sapiens, UniProt P00748), IC50 = 0.4

----------
Literature roundup of Human Factor XIIa (Homo sapiens, UniProt P00748) data, read-out IC50.

Recorded IC50 (compound Cc1cccc2c1NCCC2C(=O)n1nc2c(c1N)COCC2 (centres unmarked) ): 0.17 µM

Lab note: COc1cccc2c1NCCC2C(=O)n1nc2c(c1N)CCN(S(C)(=O)=O)C2 (single isomer, unassigned) gave IC50 of 35 µM

# compound Nc1nccc2cc(CNC(=O)c3cc(Cl)c(COCCCN4CCOCC4)s3)ccc12 ; its IC50 = 3 to 10 µM

The value of IC50 measured for the compound Nc1nn(C(=O)[C@H]2CCNc3ccccc32)c2c1C[C@@H](O)CC2 (single isomer, unassigned) turned out to be > 90 µM

// recorded IC50 for Nc1nccc2cc(CNC(=O)c3cc(Cl)cnc3NCc3cccc(N4CCCC4=O)c3)ccc12 : 10 to 40 µM

// recorded IC50 for Nc1c2c(nn1C(=O)[C@@H]1CCCc3[nH]c(Cl)cc31)CC[C@H](O)C2 (single isomer, unassigned) : 30 µM

The reported IC50 of the compound Cc1nsc(C(=O)NCc2ccc3c(N)nccc3c2)c1NCC1CCN(C)CC1 was 3 to 10 µM

Reported IC50 ( Nc1nn(C(=O)C2CCNc3ccc(F)cc32)c2c1CCN(S(=O)(=O)CC(F)F)C2 (centres unmarked) ) = 17 µM

----------
What follows is literature data on IC50 for Human Factor XIIa (Homo sapiens, UniProt P00748).

IC50 for Human Factor XIIa (Homo sapiens, UniProt P00748) with input Cc1c(Cl)sc(C(=O)NCc2ccc3c(N)nccc3c2)c1NCC1CCN(C)CC1 equals 1 to 3 µM

The compound CC(=O)N1CCc2c(nn(C(=O)C3CCNc4ccccc43)c2N)C1 (stereo not drawn) on Human Factor XIIa (Homo sapiens, UniProt P00748): IC50 was 1.8 µM

Query CN1CCC(Nc2ncc(Cl)cc2C(=O)NCc2ccc3c(N)nccc3c2)CC1 on Human Factor XIIa (Homo sapiens, UniProt P00748); IC50 returned: 1 to 3 µM

Value (IC50, Human Factor XIIa (Homo sapiens, UniProt P00748)) for record CCN1CCc2c(N)nn(C(=O)C3CCNc4c(C)cccc43)c2C1 (stereo not drawn) = 50 µM

// compound Nc1nn(C(=O)C2CCNc3ccc(F)cc32)c2c1CCN(c1ccccc1)C2 (stereo not drawn) , assay Human Factor XIIa (Homo sapiens, UniProt P00748), IC50 value: > 60 µM

Per the reported Human Factor XIIa (Homo sapiens, UniProt P00748) data, Nc1nccc2cc(CNC(=O)c3nc(CCC4CCNCC4)cs3)ccc12 has IC50 of 1 to 3 µM

The reported IC50 value, Human Factor XIIa (Homo sapiens, UniProt P00748), for COCc1nn(Cc2ccc(N3CCCC3)nc2)cc1C(=O)NCc1c(-n2cnnn2)ccc(OC)c1F reads > 40 µM

Summary line: CN1CCC(c2ccc(C(=O)NCc3ccc4c(N)nccc4c3)s2)CC1 , Human Factor XIIa (Homo sapiens, UniProt P00748), reported IC50 = 10 to 40 µM

The reported IC50 value, Human Factor XIIa (Homo sapiens, UniProt P00748), for CN1CCC(Oc2cncc(NCc3ccc4c(N)nccc4c3)n2)CC1 reads 10 to 40 µM

----------
IC50 values for Human Factor XIIa (Homo sapiens, UniProt P00748) compiled from several publications are listed below.
Answer format: numeric, µM implied, no suffix.

Tested system Human Factor XIIa (Homo sapiens, UniProt P00748); IC50 recorded for N=C(N)c1cc2ccc(OC(=O)c3cccs3)cc2s1 was 0.006

Readout IC50 for Nc1c2c(nn1C(=O)C1CCCc3ccccc31)CCCC2 (single isomer, unassigned) , test system Human Factor XIIa (Homo sapiens, UniProt P00748), was 1.7

Query Cn1c(Cl)cc2c1CCCC2C(=O)n1nc2c(c1N)CCCC2 (centres unmarked) on Human Factor XIIa (Homo sapiens, UniProt P00748); IC50 returned: 0.18

Entry Nc1c2c(nn1C(=O)[C@@H]1CCNc3ccc(F)cc31)COCC2 (single isomer, unassigned) ; assay system Human Factor XIIa (Homo sapiens, UniProt P00748); IC50 recorded at 40

# lookup: Cc1cccc2c1NCC[C@@H]2C(=O)n1nc2c(c1N)CC[C@@H](O)C2 (single isomer, unassigned) on Human Factor XIIa (Homo sapiens, UniProt P00748), IC50 = 0.04

Human Factor XIIa (Homo sapiens, UniProt P00748) assay, compound Nc1c2c(nn1C(=O)[C@H]1CCNc3c(Cl)cccc31)CC[C@@H](O)C2 (single isomer, unassigned) , recorded IC50 = 0.04
